Provide the reported IC50 of each item.
# tested_on: COP9 signalosome complex subunit 5 (Homo sapiens) (UniProt Q92905)
# Sequence (Q92905 whole entry, looked up, one chain of several): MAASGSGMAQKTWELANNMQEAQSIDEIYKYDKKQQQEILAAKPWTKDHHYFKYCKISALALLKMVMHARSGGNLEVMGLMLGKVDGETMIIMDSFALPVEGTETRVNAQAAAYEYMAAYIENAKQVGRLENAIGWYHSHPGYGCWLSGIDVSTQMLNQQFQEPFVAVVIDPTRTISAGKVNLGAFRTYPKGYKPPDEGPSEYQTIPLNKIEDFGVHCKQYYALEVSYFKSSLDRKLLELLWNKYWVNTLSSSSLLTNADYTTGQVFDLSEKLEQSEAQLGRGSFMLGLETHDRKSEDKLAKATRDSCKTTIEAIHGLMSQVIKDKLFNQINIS
# assay_overview: Csn5 deneddylation inhibitors, retested RPN11 hits, SAR follow-up, selectivity assay for RPN11 inhibitor project, biochemical, fluorescence polarization, SCF-Nedd8-OG substrate, set 2 (AID 686916)
# condition_parameters: Csn5 deneddylation of SCF-Nedd8-OG

COC(=O)c1cnc2c(SSc3cccc4cc(C(=O)OC)cnc34)cccc2c1
20 µM
COC(=O)C[C@H](NC(=O)c1cnc2c(SSc3cccc4cc(C(=O)N[C@@H](CC(=O)OC)C(=O)OC)cnc34)cccc2c1)C(=O)OC
13 µM

// for each compound in input: emit IC50
1. COC(=O)[C@H](CC(C)C)NC(=O)c1cnc2c(SSc3cccc4cc(C(=O)N[C@@H](CC(C)C)C(=O)OC)cnc34)cccc2c1
2. COc1ccc(C(=O)Sc2cccc3cccnc23)cc1F
3. COC(=O)[C@@H](NC(=O)c1cnc2c(SSc3cccc4cc(C(=O)N[C@H](C(=O)OC)C(C)C)cnc34)cccc2c1)C(C)C
4. COc1cccc(C(=O)Sc2cccc3cccnc23)c1
5. COC(=O)[C@H](C)N(C)C(=O)c1cnc2c(SSc3cccc4cc(C(=O)N(C)[C@@H](C)C(=O)OC)cnc34)cccc2c1
6. O=C(Sc1cccc2cccnc12)C1CCCCC1
7. O=C(Sc1cccc2cccnc12)c1ccccc1I

output:
1: 13.9 µM; 2: 5 µM; 3: 11.8 µM; 4: 5.57 µM; 5: 12.8 µM; 6: 4.07 µM; 7: 19.4 µM

###

# tested_on: COP9 signalosome complex subunit 5 (Homo sapiens)
# assay_overview: Csn5 deneddylation inhibitors, retested RPN11 hits, SAR follow-up, selectivity assay for RPN11 inhibitor project, biochemical, fluorescence polarization, SCF-Nedd8-OG substrate, set 2 (AID 686916)
# condition_parameters: Csn5 deneddylation of SCF-Nedd8-OG
Activity calls are given as the source filed them.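 The calls were made as follows: active = concentration halving Nedd8 removal by the CSN enzyme IC50 of 60 µM or lower; inactive = the rest.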
Your reply should match one of these outcome classes. active, inactive

Reference set, count: 8
COC(=O)[C@H](C)NC(=O)c1cnc2c(SSc3cccc4cc(C(=O)N[C@@H](C)C(=O)OC)cnc34)cccc2c1
active
N#Cc1ccc(C(=O)Sc2cccc3cccnc23)cc1
inactive
Cc1cccc(C(=O)Sc2cccc3cccnc23)c1
active
CC(C)Cc1ccc(C(=O)Sc2cccc3cccnc23)cc1
active
O=C(Sc1cccc2cccnc12)c1ccccc1
active
O=C(O)c1cnc2c(SSc3cccc4cc(C(=O)O)cnc34)cccc2c1
active
O=C(Sc1cccc2cccnc12)c1cccc(C(F)(F)F)c1
inactive
CC(C)(C)OC(=O)CCNC(=O)c1cnc2c(SSc3cccc4cc(C(=O)NCCC(=O)OC(C)(C)C)cnc34)cccc2c1
active

input: Per the records of this test, what outcome belongs to "CC[C@@H](C)[C@H](NC(=O)c1cnc2c(SSc3cccc4cc(C(=O)N[C@H](C(=O)O)[C@H](C)CC)cnc34)cccc2c1)C(=O)O" ?
output: active

input: Per the records of this test, what outcome belongs to "O=C(Sc1cccc2cccnc12)c1ccc(F)cc1F" ?
output: active

###

# tested_on: COP9 signalosome complex subunit 5 (Homo sapiens)
# assay_overview: Csn5 deneddylation inhibitors, retested RPN11 hits, SAR follow-up, selectivity assay for RPN11 inhibitor project, biochemical, fluorescence polarization, SCF-Nedd8-OG substrate, set 2 (AID 686916)
# condition_parameters: Csn5 deneddylation of SCF-Nedd8-OG
recorded_metric: IC50

Record excerpt, results attached:
COC(=O)[C@H](CO)NC(=O)c1cnc2c(SSc3cccc4cc(C(=O)N[C@@H](CO)C(=O)OC)cnc34)cccc2c1
36.2 µM
COC(=O)[C@@H]1CCCN1C(=O)c1cnc2c(SSc3cccc4cc(C(=O)N5CCC[C@H]5C(=O)OC)cnc34)cccc2c1
17.6 µM
COC(=O)[C@H](C)NC(=O)c1ccnc2c(SSc3cccc4c(C(=O)N[C@@H](C)C(=O)OC)ccnc34)cccc12
22.2 µM

// for each molecule in input: emit IC50
1. O=C(Sc1cccc2cccnc12)c1cccc2ccccc12
2. CCCc1ccc(C(=O)Sc2cccc3cccnc23)cc1
3. COc1ccc(C(=O)Sc2cccc3cccnc23)cc1
4. O=C(Sc1cccc2cccnc12)c1ccc(F)c(F)c1
5. Cc1ccccc1C(=O)Sc1cccc2cccnc12
6. CC[C@@H](C)[C@H](NC(=O)c1cnc2c(SSc3cccc4cc(C(=O)N[C@H](C(=O)OC)[C@@H](C)CC)cnc34)cccc2c1)C(=O)OC

output:
14.3 µM
10.4 µM
13.7 µM
4.92 µM
18.2 µM
4.73 µM

// for each molecule in input: emit IC50
1. O=C(Sc1cccc2cccnc12)c1ccc([N+](=O)[O-])cc1
2. COc1ccc(C(=O)Sc2cccc3cccnc23)cc1OC
3. O=C(Sc1cccc2cccnc12)c1ccccc1[N+](=O)[O-]
4. O=C(Sc1cccc2cccnc12)c1c(Cl)cccc1Cl
5. O=C(Sc1cccc2cccnc12)c1cccc(Cl)c1

output:
1. 13 µM
2. 14.3 µM
3. 9.08 µM
4. 17.4 µM
5. 2.63 µM

// for each molecule in input: emit IC50
1. O=C(Sc1cccc2cccnc12)c1ccc2c(c1)OCO2
2. O=C(O)[C@@H]1CCCN1C(=O)c1cnc2c(SSc3cccc4cc(C(=O)N5CCC[C@H]5C(=O)O)cnc34)cccc2c1

output:
1: 40.1 µM; 2: 6.36 µM

###

# tested_on: COP9 signalosome complex subunit 5 (Homo sapiens)
# assay_overview: Csn5 deneddylation inhibitors, retested RPN11 hits, SAR follow-up, selectivity assay for RPN11 inhibitor project, biochemical, fluorescence polarization, SCF-Nedd8-OG substrate, set 2 (AID 686916)
# condition_parameters: Csn5 deneddylation of SCF-Nedd8-OG
Activity calls are given as the source filed them.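 How the source made its calls: active means concentration halving Nedd8 removal by the CSN enzyme IC50 of 60 µM or lower; inactive means the rest.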
recorded_metric: IC50

Record excerpt, results attached:
CC(C)[C@H](NC(=O)c1cnc2c(SSc3cccc4cc(C(=O)N[C@H](C(=O)O)C(C)C)cnc34)cccc2c1)C(=O)O
8.35 µM
N#Cc1cccc(C(=O)Sc2cccc3cccnc23)c1
33.3 µM
C[C@@H](C(=O)O)N(C)C(=O)c1cnc2c(SSc3cccc4cc(C(=O)N(C)[C@@H](C)C(=O)O)cnc34)cccc2c1
13 µM
O=C(Sc1cccc2cccnc12)c1ccccc1Cl
19.9 µM
O=C(Sc1cccc2cccnc12)c1ccccc1F
> 95 µM (inactive)

// for each molecule in input: emit IC50
1. O=C(Sc1cccc2cccnc12)c1ccc(F)cc1
2. CC(C)C[C@H](NC(=O)c1cnc2c(SSc3cccc4cc(C(=O)N[C@@H](CC(C)C)C(=O)O)cnc34)cccc2c1)C(=O)O
3. O=C(Sc1cccc2cccnc12)c1ccccc1Br
4. O=C(Sc1cccc2cccnc12)c1ccccc1OC(F)(F)F
5. O=C(Sc1cccc2cccnc12)c1ccc(C(F)(F)F)cc1
6. Cc1ccc(C(=O)Sc2cccc3cccnc23)cc1

output:
3.12 µM
11.8 µM
7.91 µM
17.8 µM
5.25 µM
> 95 µM (inactive)
